# Test system: p-IKKα levels in L363 (NIK translocated multiple myeloma) cells
# test protocol: Effect of compounds on p-IKKα levels in L363 cells (AlphaLISA SureFire Ultra)
# Format: cell-based
# condition set: Homo sapiens, L-363; L363 cells, BAFF stimulated, MG132, 6 h; average of values; read-out: Assay 2 IC50
pIC50: −log10 of the molar value.

{"structure smiles string": "CN1CC[C@@](O)(c2cc(-c3cccc(-c4nc(C(N)=O)c(Nc5cnn(C)c5)s4)c3)no2)C1=O", "pIC50": "> 7.00"}
{"structure smiles string": "CN1CC[C@@](O)(c2cc(-c3cccc(-c4ncc(Nc5cnn(C)c5)c(C(N)=O)n4)c3)no2)C1=O", "pIC50": "> 7.00"}
{"structure smiles string": "CN1CC[C@@](O)(c2cc(-c3cccc(-n4cc(C(N)=O)c(N)n4)n3)no2)C1=O", "pIC50": "< 6.30"}
{"structure smiles string": "CN1CC[C@@](O)(c2cc(-c3cccc(-c4ccc5ncoc5c4)c3)no2)C1=O", "pIC50": "< 6.30"}
{"structure smiles string": "CN1CC[C@@](O)(c2cc(-c3cccc(-c4nc(C(N)=O)n5c4CCCC5)c3)no2)C1=O", "pIC50": "> 7.00"}
{"structure smiles string": "CN1CC[C@@](O)(c2cc(-c3cccc(-c4csc(C(N)=O)n4)c3)no2)C1=O", "pIC50": "< 6.30"}
{"structure smiles string": "CN1CC[C@@](O)(c2cc(-c3cccc(-c4ncc(NCC5COC5)c(C(N)=O)n4)c3)no2)C1=O", "pIC50": "> 7.00"}
{"structure smiles string": "CN1CC[C@@](O)(c2cc(-c3cccc(-c4ccc5ncnc(N6CCC6)c5n4)c3)no2)C1=O", "pIC50": "< 6.30"}
{"structure smiles string": "CN1CC[C@@](O)(c2cc(-c3cccc(-c4cccc(C(N)=O)c4)c3)no2)C1=O", "pIC50": "< 6.30"}
{"structure smiles string": "CN1CC[C@@](O)(c2cc(-c3cccc(-c4nc(C(N)=O)c(CNC5CCCC5)s4)c3)no2)C1=O", "pIC50": "< 6.30"}
{"structure smiles string": "[2H]c1nc(N)c2nc(-c3cccc(-n4cc([C@]5(O)CCN(C)C5=O)nn4)c3)ccc2n1", "pIC50": "< 6.30"}
{"structure smiles string": "CN1CC[C@@](O)(c2cc(-c3cccc(-c4cc(N[C@H]5CCOC5)cc(C(N)=O)n4)c3)no2)C1=O", "pIC50": "< 6.30"}
{"structure smiles string": "Cc1n[nH]c2nc(-c3cccc(-c4cc([C@]5(O)CCN(C)C5=O)on4)c3)cc(C(N)=O)c12", "pIC50": "< 6.30"}
{"structure smiles string": "CN1CC[C@@](O)(c2cc(-c3cccc(-c4ccc5[nH]ncc5n4)c3)no2)C1=O", "pIC50": "< 6.30"}
{"structure smiles string": "CN1CC[C@@](O)(c2cc(-c3cccc(-c4ccn5cncc5c4)c3)no2)C1=O", "pIC50": "< 6.30"}
